Cited source: patent US20250163057A1

Entries and their IC50 values follow.
Target: DCN1 (DCUND1) protein PONY domain (Homo sapiens (Human))
Sequence (Q96GG9 60-248): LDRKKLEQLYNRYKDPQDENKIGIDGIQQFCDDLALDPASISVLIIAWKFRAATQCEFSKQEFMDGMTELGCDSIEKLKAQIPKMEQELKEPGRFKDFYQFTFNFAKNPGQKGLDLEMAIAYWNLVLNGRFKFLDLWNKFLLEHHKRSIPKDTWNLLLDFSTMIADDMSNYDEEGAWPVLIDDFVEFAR
Assay: TR-FRET assay, DCN1 binding with FAM-labeled probe
Settings: TR FRET IC50 1 hr (nM), 1 hr after treatment with compound
Protocol: A TR-FRET assay was performed to evaluate the ability of the compounds to bind the DCN-1 protein. The TR-FRET assay was designed following the Scott et al. protocol (Scott et al., Nat Chem Biol. 2017 August; 13(8): 850-857. Doi:10.1038/nchembio.2386). […] The TR-FRET ratio between Tb-DCN1 and the FAM-labeled probe was measured in a 384-well opti-plate (Perkin Elmer) using a plate reader (BMG) at 1, 5, and 24 hrs after treatment with compound (final DMSO concentration of 0.1%).

response.value for CCCn1nc(C(=O)N2CCC[C@H]2C#N)c2c1N(CC)C(=O)[C@@H](NC(=O)c1cccc(C(F)(F)F)c1)[C@H]2c1ccc(F)cc1 [Compound I-428] (field: IC50) = 200 to 1000 nM

response.value for CCN1C(=O)[C@@H](NC(=O)c2cccc(C(F)(F)F)c2)[C@@H](c2ccc(F)cc2)c2c(C(=O)N3[C@H](C)CC[C@H]3C#N)nn(C3CCOCC3)c21 [Compound I-416] (field: IC50) = 1000 to 3000 nM

response.value for CCN1C(=O)[C@@H](NC(=O)c2ccc3c(c2)CCO3)[C@@H](C2CC2)c2c(C(=O)N3[C@H](C#N)C[C@H]4C[C@H]43)nn(C3CCOCC3)c21 [Compound I-547] (field: IC50) = 200 to 1000 nM

response.value for CCN1C(=O)[C@@H](NC(=O)c2cccc(C(F)(F)F)c2)[C@@H](c2ccc(F)cc2)c2c(C(=O)N3CCC[C@H]3C#N)nn(-c3cccc(OCCCN4CCOCC4)c3)c21 [Compound I-338] (field: IC50) = 1000 to 3000 nM

response.value for CCN1C(=O)[C@@H](NC(=O)c2cccc(C(F)(F)F)c2)[C@H](c2ccc(F)cc2)c2c(CN(C)C#N)nn(-c3ccccc3)c21 (single isomer, unassigned) [Compound I-133] (field: IC50) = 200 to 1000 nM

response.value for CCN1C(=O)[C@@H](NC(=O)C2CC2C(F)(F)F)[C@@H](C2CC2)c2c(C(=O)N3[C@H](C#N)C[C@H]4C[C@H]43)nn(C3CCOCC3)c21 (some centres unmarked) [Compound I-523] (field: IC50) = 1000 to 3000 nM

response.value for CCN1C(=O)[C@@H](NC(=O)c2cccc(C(F)(F)F)c2)[C@@H](c2ccc(F)cc2)c2c(NC(=O)C#CCN(C)C)nn(-c3ccccc3)c21 (racemic) [Compound I-93] (field: IC50) = ≤ 200 nM

response.value for CCN1C(=O)[C@@H](NC(=O)c2cccc(C(F)(F)F)n2)[C@@H](c2ccc(F)cc2)c2c(C(=O)N3CCC[C@H]3C#N)nn(C3CCOCC3)c21 [Compound I-332] (field: IC50) = 200 to 1000 nM
